Tested on: Mast/stem cell growth factor receptor Kit (Homo sapiens), P10721 [V560G]
Sequence (P10721 whole entry V560G): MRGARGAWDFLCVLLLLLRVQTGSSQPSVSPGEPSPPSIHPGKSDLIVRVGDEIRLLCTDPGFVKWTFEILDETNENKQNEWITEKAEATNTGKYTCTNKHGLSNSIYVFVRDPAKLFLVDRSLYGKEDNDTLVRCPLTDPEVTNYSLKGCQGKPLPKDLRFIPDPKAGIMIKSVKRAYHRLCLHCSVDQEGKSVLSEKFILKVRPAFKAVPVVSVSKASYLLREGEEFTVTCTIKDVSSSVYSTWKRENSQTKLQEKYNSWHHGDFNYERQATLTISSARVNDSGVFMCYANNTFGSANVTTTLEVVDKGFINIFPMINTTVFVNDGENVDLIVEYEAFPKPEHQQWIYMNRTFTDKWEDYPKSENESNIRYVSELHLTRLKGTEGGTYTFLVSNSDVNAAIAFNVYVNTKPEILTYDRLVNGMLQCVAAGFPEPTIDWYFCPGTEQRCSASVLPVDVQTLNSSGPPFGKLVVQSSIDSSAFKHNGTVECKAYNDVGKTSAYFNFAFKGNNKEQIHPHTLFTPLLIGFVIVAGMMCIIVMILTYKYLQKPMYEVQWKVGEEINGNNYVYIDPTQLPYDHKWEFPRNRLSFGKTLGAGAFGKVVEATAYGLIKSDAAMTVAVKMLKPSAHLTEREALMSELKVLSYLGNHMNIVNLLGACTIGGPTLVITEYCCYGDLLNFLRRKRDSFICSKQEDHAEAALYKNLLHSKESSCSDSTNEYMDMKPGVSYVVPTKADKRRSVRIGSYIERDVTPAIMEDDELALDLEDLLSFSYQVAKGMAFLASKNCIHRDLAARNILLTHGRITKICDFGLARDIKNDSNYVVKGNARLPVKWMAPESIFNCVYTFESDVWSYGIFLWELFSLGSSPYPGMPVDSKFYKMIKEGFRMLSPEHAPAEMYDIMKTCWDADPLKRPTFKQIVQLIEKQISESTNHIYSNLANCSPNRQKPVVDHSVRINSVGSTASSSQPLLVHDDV
condition-parameters: at 0.1 µM
property-measured: inhibition (%)
Kindly answer with a numeric value in %, unit omitted.

Quick note, inhibition for COc1cccc(-n2ncc3c(N/N=C/c4ccncc4)ncnc32)c1 landed at 0.93

Record CCn1c(-c2nonc2N)nc2c(C#CC(C)(C)O)ncc(OC[C@@H]3CCCN3)c21 , field inhibition: 0.39

get_value(item= NS(=O)(=O)c1ccc(N/C=C2\C(=O)Nc3ccc4ncsc4c32)cc1 , readout=inhibition) returns 0.83

So for COc1cc(C=NNc2ncnc3c2cnn3Cc2ccccc2)ccc1O , the logged inhibition turned out to be 1.99

The recorded inhibition for entry CCn1c(-c2nonc2N)nc2c(C#CCN)ncc(OCCCN)c21 equals 1.17

Reference source for all entries: ChEMBL document CHEMBL1961873
